# System: RC-K8 (B-Cell Non-Hodgkin's Lymphoma)
# Method summary: combination Emax (second highest fraction inhibited in the dose matrix, 72 h); higher = more inhibition; extreme values may be limits of the assay
Metric: combination Emax

- Cc1c2c(nn1C)CSCc1cc(n(C)n1)CSc1cc(c3ccccc3c1)OCCCc1c(C(=O)O)n(C)c3c-2c(Cl)ccc13 [AZD5991] + C[C@@H](Nc1cc(F)cc(F)c1)c1cc(C(=O)N(C)C)cc2c(=O)cc(N3CCOCC3)oc12 [AZD8186] (first compound max 1 µM, 7x7, partner max 3 µM): 0.2
- Cc1c2c(nn1C)CSCc1cc(n(C)n1)CSc1cc(c3ccccc3c1)OCCCc1c(C(=O)O)n(C)c3c-2c(Cl)ccc13 [AZD5991] + C[C@@H]1COCCN1C2=NC(=NC(=C2)C3(CC3)[S@](=N)(=O)C)C4=C5C=CNC5=NC=C4 [AZD6738] (first compound max 1 µM, 7x7, partner max 10 µM): 0.781
- Cc1c2c(nn1C)CSCc1cc(n(C)n1)CSc1cc(c3ccccc3c1)OCCCc1c(C(=O)O)n(C)c3c-2c(Cl)ccc13 [AZD5991] + Cc1cc2ncnn2cc1Nc1ncc2c(n1)n(C1CCOCC1)c(=O)n2C [AZD7648] (first compound max 1 µM, 7x7, partner max 10 µM): 0.425
